molecular target: RSV A2 pre-F (RSV A2); experiment: ELISA
measurement label: EC50

Examples from the recorded data:
INSERT INTO assay_data (binder, test_value) VALUES
  ('F6-132 (antibody, V domains shown) VH: QEQSVQSGAEVKKPGASVKVSCRASEFTFSTDFIHWVRQAPGQGLEWMGRITPSDGTTTYAQKFQGRVTMTRDPSTNTVYIELRRLKSEDTAVYYCVAYDRVTTSAGTGASDIWGQGTMVTVSS VL: DIVMTQSPLSLPVTPGEPASISCRSSQSLLHGDGYNYLDWYLQKPGRSPQLLIYLGSHRASGVPDRFSGSGSGTDFTLRISRVEAEDVGIYYCMQGLQTPFTFGPGTKVDIK', '0.0167 µg/mL'),
  ('F6-172 (antibody, V domains shown) VH: EEQLVESGGGLVQPGGSLKLSCAASGFILSDSTVHWVRQASGRGLEWVGRIANGYATSYAASVKGRFTISTDDSGNTAYLEMNSLKTEDTAVYYCTSRSVVVTDVGAGRDDYWGQGTLVTVSS VL: DIVMTQSPLSLPVTPGEPASISCRSSQSLLHRNGYNYLDWYLQKPGQSPQLLIWLGSNRASGVPDRFSGSGSGTDFTLTISRVEAEDVGVYYCMQDLQTPPTFGGGTKVEIM', '0.0183 µg/mL');

Now turn to the next binder.
# input binder: F6-215 (antibody, V domains shown) VH: QEQSVQSGPEVKKPGASVKVSCRASEFTFSTDFIHWVRQAPGQGLEWMGRITPSDGTTTYAPKFQGRVAVTRDPSTKNVYIQLTRLKSEDTAVYYCVAYDRATTSAGAGATDIWGQGTLVTVSS VL: DIVMTQSPLSLPVTPGEPASISCRSSQSLLHGDGYNYLDWYLQRPGRSPQLLIYLGSHRASGVPDRFSGSGSGTDFTLRISRVEAEDVGIYYCMQGLQTPFTFGPGTKVDIK ; wanted: its EC50
0.0289 µg/mL
